Data origin: patent US6114334A

Each entry below carries its reported Ki.
Target: α1-adrenoceptors
Test: inhibition of 7-methoxy-[3H]prazosin binding to α1-adrenoceptors in vitro
Parameters: species or system rat (male Charles River CD, whole cortical tissue)
Settings: rat whole cortex, 7-methoxy-[3H]prazosin 0.1 nM, 30° C., 30 min

Below, each entry is followed by its recorded Ki result.
- Compound: "C=CCn1c(-c2cccnc2)nn(CN2CCN(c3cccc4c3OCCO4)CC2)c1=S"
  Ki: "> 500 nM"
- Compound: "CC1(CN2CCN(c3cccc4c3OCCO4)CC2)N=C(c2cccnc2)NC1=O (stereo not drawn)"
  Ki: "> 500 nM"

Next, consider the following compound.
Return Ki for the following compound: C=CCn1c(-c2cccnc2)nn(CN2CCN(c3ccccc3OC)CC2)c1=S
> 500 nM
